// data source = the supplement of paper PMC10567573

Exercise: for every item that follows, state its recorded protein stability index.
B1: LCOR (parent)
chain: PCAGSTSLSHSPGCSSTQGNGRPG

Variants of: B1
Experiment: protein stability index of a GFP-peptide fusion (GPS, HEK-293T) (PSI 1-6); higher = more stable;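 further: lentivirally expressed fusions sorted by FACS into six bins by GFP to DsRed ratio, PSI derived from sequencing read proportions per bin multiplied by bin number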
Conditions: c terminus: a fixed tail appended
Respond using a number only.

Problem: Reported protein stability index, variant `P23D` : ____
Solution: 4.15

Problem: Same lookup for `H10I` , please.
Solution: 3.89

Problem: Repeat for the following variant: `H10D`
Solution: 4.89

Problem: Moving on to `S9Y`
Solution: 1.89

Problem: Please give the result for `G24L` too.
Solution: 2.94

Problem: Now consider `S16H` .
Solution: 2.21

Problem: Thanks! And `Q18P` ?
Solution: 2.89

Problem: Try the variant `G19H`
Solution: 2.32

Problem: Similarly, `G19F` ?
Solution: 3.15

Problem: Also, `N20M` please.
Solution: 2.83

Problem: How about `Q18C` ?
Solution: 2.73

Problem: Follow-up entry: `S5R`
Solution: 2.71

Problem: Now this one: `R22F`
Solution: 3.37

Problem: Please do the same for `G4T` as well.
Solution: 3.71

Problem: One more variant: `N20R`
Solution: 3.07

Problem: Another variant to look at: `Q18T`
Solution: 3.37

Problem: Please give the result for `P12G` too.
Solution: 4.15

Problem: Now consider `G19M` .
Solution: 2.88

Problem: Now give it for `C14F` too.
Solution: 4.71

Problem: Thanks! And `G21Y` ?
Solution: 2.92

Problem: Next: `P12R`
Solution: 2.92

Problem: Next variant: `C2H`
Solution: 4.99

Problem: For `H10A` then?
Solution: 4.02

Problem: Consider next the variant `R22C` in the same way.
Solution: 3.92

Problem: Again, but for `L8Y`
Solution: 4.95

Problem: Note, next up: `G19R`
Solution: 2.32

Problem: Again, but for `C14S`
Solution: 5.88

Problem: Could you do the same for `S5M` , please?
Solution: 2.9

Problem: What about this variant? `T17N`
Solution: 2.29

Problem: Follow-up item: `P12I`
Solution: 2.73

Problem: Here is the next variant: `G24I`
Solution: 3.09

Problem: And for `S9R` ?
Solution: 1.04

Problem: Similarly, `Q18R` ?
Solution: 3.01

Problem: Next variant up: `G19D`
Solution: 3.91

Problem: // query: `P23I`
Solution: 3.02

Problem: Here is the next variant: `S16R`
Solution: 4.34

Problem: Try this variant too: `S15K`
Solution: 2.39

Problem: Follow-up item: `S7H`
Solution: 2.42

Problem: What do you get for `P12C` ?
Solution: 1.01

Problem: And what about the variant `S11P` ?
Solution: 3.16

Problem: One more variant: `G21S`
Solution: 2.81

Problem: And `S15E` ?
Solution: 3.55

Problem: What do you get for `L8G` ?
Solution: 4.25

Problem: # iterate: `N20V`
Solution: 3.58

Problem: Field entry: `P12V`
Solution: 3.15

Problem: Do the same for `S5D` please
Solution: 4.27
